// values below are reported IC50
Target: KRAS Q61H (Homo sapiens, UniProt P01116+P62937, Q61H)
Sequence (P01116 1-169 isoform P01116-2 Q61H limits assumed): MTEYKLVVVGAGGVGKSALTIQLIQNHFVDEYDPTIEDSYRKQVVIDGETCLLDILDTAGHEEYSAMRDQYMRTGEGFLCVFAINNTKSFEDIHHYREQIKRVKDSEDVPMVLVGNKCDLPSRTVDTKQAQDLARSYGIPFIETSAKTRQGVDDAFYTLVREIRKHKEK
Sequence (P62937 whole entry): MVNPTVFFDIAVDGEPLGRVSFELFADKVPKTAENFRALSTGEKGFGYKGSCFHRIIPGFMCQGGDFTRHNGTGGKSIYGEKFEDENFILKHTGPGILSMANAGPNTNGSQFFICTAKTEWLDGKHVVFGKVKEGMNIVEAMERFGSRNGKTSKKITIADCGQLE
Test: Disruption of BRAF RBD interaction with Ras (FRET / MOA assay, with Cyclophilin A)
Format: biochemical
Details: KRAS Q61H; read-out: KRAS Q61H FRET data IC50

Q) Please give the measured IC50 for this molecule: CCn1c(-c2cccnc2[C@H](C)OC)c2c3cc(ccc31)-c1cc(O)cc(c1)C[C@H](NC(=O)[C@H](C(C)C)N(C)C(=O)[C@H]1C[C@@H]1O)C(=O)N1CCC[C@H](N1)C(=O)OCC(C)(C)C2 (single isomer, unassigned) [Example A346]
A) 10 to 100 nM

Q) Now consider CCn1c(-c2cccnc2[C@H](C)OC)c2c3cc(ccc31)-c1csc(n1)C[C@H](NC(=O)[C@H](C(C)C)N(C)C(=O)N1CC[C@H]3CN(C)C[C@H]31)C(=O)N1CCC[C@H](N1)C(=O)OCC(C)(C)C2 (atropisomer, axis not shown) [Example A471] and answer again.
A) 10 to 100 nM

Q) Now consider CCn1c(-c2cccnc2[C@H](C)OC)c2c3cc(ccc31)-c1csc(n1)C[C@H](NC(=O)[C@H](COC1CN(C(=O)C#CC(C)(C)N(C)C)C1)OC)C(=O)N1CCC[C@H](N1)C(=O)OCC(C)(C)C2 (atropisomer, axis not shown) [Example A705] and answer again.
A) 1000 to 10000 nM

Q) Now consider CCn1c(-c2cccnc2[C@H](C)OC)c2c3cc(ccc31)-c1csc(n1)C[C@H](NC(=O)[C@H](C(C)C)N(C)C(=O)N(C)C1CN(C(=O)/C=C/C(C)(C)O)C1)C(=O)N1CCC[C@H](N1)C(=O)OCC(C)(C)C2 (atropisomer, axis not shown) [Example A350] and answer again.
A) 10 to 100 nM

###

Biological target: KRAS G12C (Homo sapiens, UniProt P01116+P62937, G12C)
Sequence (P01116 1-169 isoform P01116-2 G12C, one chain of several): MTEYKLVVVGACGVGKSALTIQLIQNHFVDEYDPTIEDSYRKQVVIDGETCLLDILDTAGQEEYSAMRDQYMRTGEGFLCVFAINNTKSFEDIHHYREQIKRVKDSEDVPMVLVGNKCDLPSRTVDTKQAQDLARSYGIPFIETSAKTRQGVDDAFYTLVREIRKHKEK
Experiment: Disruption of BRAF RBD interaction with Ras (FRET / MOA assay, with Cyclophilin A)
Format: biochemical
Details: read-out: KRAS G12C FRET data, IC50
result_type: IC50

# count of solved cases: 5
>>> result("CCn1c(-c2cccnc2[C@H](C)OC)c2c3cc(ccc31)-c1cc(O)cc(c1)C[C@H](NC(=O)[C@@H](NC(C)=O)C(C)(C)OC)C(=O)N1CCC[C@H](N1)C(=O)OCC(C)(C)C2 (racemic)")
"> 10000 nM"
>>> result("CCn1c(-c2cnccc2COC)c2c3cc(ccc31)-c1cc(O)cc(c1)C[C@H](NC(=O)[C@H](C(C)C)N1COCC1=O)C(=O)N1CCC[C@H](N1)C(=O)OCC(C)(C)C2")
"100 to 1000 nM"
>>> result("CCn1c(-c2cccnc2[C@H](C)OC)c2c3cc(ccc31)-c1cc(O)cc(c1)C[C@H](NC(=O)[C@H](C(C)C)N(C)C(=O)[C@@H]1OCC[C@@H]1c1cccnc1)C(=O)N1CCC[C@H](N1)C(=O)OCC(C)(C)C2 (atropisomer, axis not shown)")
"< 10 nM"
>>> result("CCn1c(-c2cccnc2[C@H](C)OC)c2c3cc(ccc31)-c1cc(O)cc(c1)C[C@H](NC(=O)[C@H](C(C)C)N(C)C(=O)C1CN(C)C1)C(=O)N1CCC[C@H](N1)C(=O)OCC(C)(C)C2 (atropisomer, axis not shown)")
"100 to 1000 nM"
>>> result("CCn1c(-c2cccnc2[C@H](C)OC)c2c3cc(ccc31)-c1csc(n1)C[C@H](NC(=O)[C@H](C(C)C)N(C)C(=O)N1CC(C3CN(C)C3)C1)C(=O)N1CCC[C@H](N1)C(=O)OCC(C)(C)C2 (atropisomer, axis not shown)")
"10 to 100 nM"

Q) Please give the measured IC50 for this molecule: CCn1c(-c2cccnc2[C@H](C)OC)c2c3cc(ccc31)-c1csc(n1)C[C@H](NC(=O)[C@H](C(C)C)N(C)C(=O)N1CCCOCC1)C(=O)N1CCC[C@H](N1)C(=O)OCC(C)(C)C2 (atropisomer, axis not shown)
A) 10 to 100 nM

Q) Now consider CCn1c(-c2cccnc2[C@H](C)OC)c2c3cc(ccc31)-c1csc(n1)C[C@H](NC(=O)[C@H](C(C)C)N(C)C(=O)N1CCC(C(=O)C(F)(F)F)CC1)C(=O)N1CCC[C@H](N1)C(=O)OCC(C)(C)C2 and answer again.
A) 10 to 100 nM

###

Molecular target: KRAS G13C (Homo sapiens, UniProt P01116+P62937, G13C)
Sequence (P01116 1-169 isoform P01116-2 G13C limits assumed, one chain of several): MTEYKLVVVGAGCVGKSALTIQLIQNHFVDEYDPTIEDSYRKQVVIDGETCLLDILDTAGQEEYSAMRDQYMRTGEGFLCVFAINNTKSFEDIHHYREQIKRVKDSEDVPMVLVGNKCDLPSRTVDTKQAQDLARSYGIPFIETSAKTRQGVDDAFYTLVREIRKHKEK
Experiment: Ras-Raf disruption / FRET / MOA assay (BRAF RBD)
Type: biochemical
Conditions: Ras-Raf disruption, with Cyclophilin A; read-out: KRAS G13C FRET data IC50
result_type: IC50

# count of solved cases: 3
>>> result("CCn1c(-c2cccnc2[C@H](C)OC)c2c3cc(ccc31)-c1csc(n1)C[C@H](NC(=O)[C@H](C(C)C)N(C)C(=O)N(C)CCN(C)C(=O)[C@H]1CN1)C(=O)N1CCC[C@H](N1)C(=O)OCC(C)(C)C2 (atropisomer, axis not shown)")
"100 to 1000 nM"
>>> result("CCn1c(-c2cccnc2[C@H](C)OC)c2c3cc(ccc31)-c1csc(n1)C[C@H](NC(=O)[C@H](C(C)C)N(C)C(=O)N1CC[C@@H](N(C)C(=O)[C@H]3CN3)C1)C(=O)N1CCC[C@H](N1)C(=O)OCC(C)(C)C2 (atropisomer, axis not shown)")
"100 to 1000 nM"
>>> result("CCn1c(-c2cccnc2[C@H](C)OC)c2c3cc(ccc31)-c1cc(O)cc(c1)C[C@H](NC(=O)[C@H](C(C)C)N(C)C(=O)N(C)C1CN(C(=O)[C@H]3CN3)C1)C(=O)N1CCC[C@H](N1)C(=O)OCC(C)(C)C2 (atropisomer, axis not shown)")
"10 to 100 nM"

We now examine a further molecule.
Q) Please give the measured IC50 for this molecule: CCn1c(-c2cccnc2[C@H](C)OC)c2c3cc(ccc31)-c1csc(n1)C[C@H](NC(=O)[C@H](C(C)C)N(C)C(=O)N(C)C1CN(C(=O)[C@H]3CN3)C1)C(=O)N1CCC[C@H](N1)C(=O)OCC(C)(C)C2
A) 100 to 1000 nM

###

Target: KRAS G12C (Homo sapiens, UniProt P01116+P62937, G12C)
Experiment: Disruption of BRAF RBD interaction with Ras (FRET / MOA assay, with Cyclophilin A)
Assay type: biochemical
Settings: KRAS G12C; read-out: KRAS G12C FRET data IC50
pIC50: −log10 of the molar value.
// values below are reported pIC50

>>> result("C=CC(=O)N1CC[C@H](C(=O)N(C)[C@H](C(=O)N[C@H]2Cc3cc(O)cc(c3)-c3ccc4c(c3)c(c(-c3ccc(CN(C)C)cc3COC)n4CC)CC(C)(C)COC(=O)[C@@H]3CCCN(N3)C2=O)C(C)C)C1")
"7.00 to 8.00"

Q) What pIC50 appears in the records for this compound with KRAS G12C (Homo sapiens, UniProt P01116+P62937, G12C)? CCn1c(-c2cccnc2COC)c2c3cc(ccc31)-c1cc(O)cc(c1)C[C@H](NC(=O)[C@@H](C(C)C)N(C)C(=O)[C@H]1CCN(C(=O)C#CC(C)N3CCOCC3)C1)C(=O)N1CCC[C@H](N1)C(=O)OCC(C)(C)C2 (stereo partly drawn)
A) 7.00 to 8.00

Q) Now consider C=CS(=O)(=O)N1CC[C@H](C(=O)N(C)[C@H](C(=O)N[C@H]2Cc3cc(O)cc(c3)-c3ccc4c(c3)c(c(-c3cccnc3COC)n4CC)CC(C)(C)COC(=O)[C@@H]3CCCN(N3)C2=O)C(C)C)C1 and answer again.
A) 7.00 to 8.00

Q) Now consider C=CC(=O)N1CC[C@H](C(=O)N(C)[C@H](C(=O)N[C@H]2Cc3cc(O)cc(c3)-c3ccc4c(c3)c(c(-c3ccc5cc(CN(C)C)n(C)c5c3)n4CC)CC(C)(C)COC(=O)[C@@H]3CCCN(N3)C2=O)C(C)C)C1 and answer again.
A) 6.00 to 7.00

Q) Now consider CCn1c(-c2cccnc2COC)c2c3cc(ccc31)-c1cc(O)cc(c1)C[C@H](NC(=O)[C@H](C(C)C)N(C)C(=O)[C@H]1CCN(C(=O)C#CC(C)(C)N(C)C)C1)C(=O)N1CCC[C@H](N1)C(=O)OCC(C)(C)C2 and answer again.
A) > 8.00

Q) Now consider C=CC(=O)N1CC[C@H](C(=O)N(C)[C@H](C(=O)N[C@H]2Cc3cc(O)cc(c3)-c3ccc4c(c3)c(c(-c3cccnc3CN(C)C)n4CC)CC(C)(C)COC(=O)[C@@H]3CCCN(N3)C2=O)C(C)C)C1 and answer again.
A) 6.00 to 7.00

Q) Now consider C=CC(=O)N1CC[C@H](C(=O)N(C)[C@H](C(=O)N[C@H]2Cc3nc(cs3)-c3ccc4c(c3)c(c(-c3cccnc3COC)n4CC)CC(C)(C)COC(=O)[C@@H]3CCCN(N3)C2=O)C(C)C)C1 and answer again.
A) 6.00 to 7.00

Q) Now consider C=CC(=O)N1CC[C@H](C(=O)N(C)[C@H](C(=O)N[C@H]2Cc3cc(O)cc(c3)-c3ccc4c(c3)c(c(-c3ccc(CC(=O)O)cc3)n4CC)CC(C)(C)COC(=O)[C@@H]3CCCN(N3)C2=O)C(C)C)C1 and answer again.
A) 5.00 to 6.00

Q) Now consider CCn1c(-c2cccnc2COC)c2c3cc(ccc31)-c1cc(O)cc(c1)C[C@H](NC(=O)[C@H](C(C)C)N(C)C(=O)[C@H]1CCN(C(=O)C#CCN3CCOCC3)C1)C(=O)N1CCC[C@H](N1)C(=O)OCC(C)(C)C2 and answer again.
A) > 8.00

Q) Now consider C=CC(=O)N1CC[C@H](C(=O)N(C)[C@H](C(=O)N[C@H]2Cc3cc(O)cc(c3)-c3ccc4c(c3)c(c(-c3cnccc3C)n4CC)CC(C)(C)COC(=O)[C@@H]3CCCN(N3)C2=O)C(C)C)C1 and answer again.
A) 7.00 to 8.00

Q) Now consider CCn1c(-c2cccnc2[C@H](C)OC)c2c3cc(ccc31)-c1cccc(c1)C[C@H](NC(=O)[C@H](C(C)C)N(C)C(=O)[C@@H]1CCN(C(=O)C#CC(C)(C)N3CCC3)C1)C(=O)N1CCC[C@H](N1)C(=O)OCC(C)(C)C2 and answer again.
A) 7.00 to 8.00

Q) Now consider CCn1c(-c2ccccc2CN(C)C)c2c3cc(ccc31)-c1cc(O)cc(c1)C[C@H](NC(=O)[C@H](C(C)C)N(C)C(=O)[C@H]1CCN(C(=O)/C=C/CN(C)C)C1)C(=O)N1CCC[C@H](N1)C(=O)OCC(C)(C)C2 and answer again.
A) 7.00 to 8.00

Q) Now consider C=CC(=O)N1CC[C@H](C(=O)N(C)[C@H](C(=O)N[C@H]2Cc3cc(O)cc(c3)-c3ccc4c(c3)c(c(-c3cc(F)cnc3COC)n4CC)CC(C)(C)COC(=O)[C@@H]3CCCN(N3)C2=O)C(C)C)C1 and answer again.
A) 7.00 to 8.00

Q) Now consider C=CC(=O)N1CC(NC[C@H](C(=O)N[C@H]2Cc3cc(O)cc(c3)-c3ccc4c(c3)c(c(-c3cccnc3COC)n4CC)CC(C)(C)COC(=O)[C@@H]3CCCN(N3)C2=O)C(C)C)C1 and answer again.
A) 6.00 to 7.00

Q) Now consider C=CC(=O)N1CC[C@@H](N(C)C(=O)N(C)[C@H](C(=O)N[C@H]2Cc3nc(cs3)-c3ccc4c(c3)c(c(-c3cccnc3[C@H](C)OC)n4CC)CC(C)(C)COC(=O)[C@@H]3CCCN(N3)C2=O)C(C)C)C1 and answer again.
A) 7.00 to 8.00

src = patent US20230233569A1
